Origin of measurements: paper PMC5834492

# Test system: M. marinum in BV2 microglial cells
# Format: cell-based, Mycobacterium marinum
# CONDITION_SUMMARY: 10 µM
EXPERIMENTAL_READOUT: hit in BV2/M. marinum assay True/False

Before answering, review these 5 worked examples.
COMPOUND | TARGET_OR_TEST_SYSTEM | RESULT
Nc1nc(N)c2c(Sc3ccc4ccccc4c3)cccc2n1 [GW369335X] | M. marinum in BV2 microglial cells | FALSE
COc1cc2ccccc2cc1C(=O)NCc1cccc(-c2ccccc2OC)c1 [GSK695914A] | M. marinum in BV2 microglial cells | TRUE
Cc1ccc2nc(C(F)(F)F)c(C(=O)NCc3cccs3)n2c1 [GSK1829729A] | M. marinum in BV2 microglial cells | TRUE
Cc1ccc2nc(C)c(C(=O)NCc3ccco3)n2c1 [GSK1829819A] | M. marinum in BV2 microglial cells | TRUE
N#Cc1ccc2c(c1)CCN(CCCSc1ccnc3cc(C(F)(F)F)ccc13)CC2 [GSK254610A] | M. marinum in BV2 microglial cells | TRUE

(Q) Answer with reported hit in BV2/M. marinum assay True/False of CC(C)OC(=O)COc1ccc(-c2cnc(N(C)CCc3ccncc3)nc2)cc1 [GSK831784A]
(A) FALSE

(Q) Answer with reported hit in BV2/M. marinum assay True/False of Cc1ccc2nc(C(F)(F)F)c(C(=O)NCc3ccc(C)o3)n2c1 [GSK1829728A]
(A) TRUE

(Q) Answer with reported hit in BV2/M. marinum assay True/False of Cc1ccccc1CN1CCC(O)(c2ccc(Cl)c(C(F)(F)F)c2)CC1 [GSK1985270A]
(A) TRUE

(Q) Answer with reported hit in BV2/M. marinum assay True/False of CCCCS(=O)(=O)Nc1ccc2cnn(C)c2c1 [GSK3011724A]
(A) TRUE
